I'd appreciate it if you could supply ED50 values for the items below.
Test system: hypothermic effect caused by reserpine
Assay: Reserpine antagonism (elimination of the hypothermic effect caused by reserpine)
Type: in vivo
Settings: Mus musculus; mice, oral, 17 h after 2 mg/kg i.p. reserpine; 7 hours; read-out: Reserpine antagonism after 7 hours (ED50)

# example entries with known answers
### Prompt Fill in ED50 for Cc1ccc(C2CN(C)Cc3c2ccn3C)cc1.Cl (stereo not shown) tested with hypothermic effect caused by reserpine.
### Response < 10 mg/kg

### Prompt Fill in ED50 for CN1Cc2c(cc(CN3CCCCC3)n2C)C(c2ccc(Br)cc2)C1 (stereo not shown) [dimaleate] tested with hypothermic effect caused by reserpine.
### Response > 40 mg/kg

### Prompt Fill in ED50 for CN1Cc2c(ccn2C)C(c2ccc(Br)cc2)C1 (stereo not shown) tested with hypothermic effect caused by reserpine.
### Response 40 mg/kg

// below: ED50 requested for another molecule
### Prompt Fill in ED50 for CN1Cc2c(ccn2C)C(c2ccc(Cl)cc2)C1.Cl (stereo not shown) tested with hypothermic effect caused by reserpine.
### Response < 10 mg/kg

Measured values drawn from patent US4315938A for this set.
